Square brackets hold non-standard residues; d marks the D form. Peptide text beside a SMILES is read from it. * marks the point of attachment. ξ: configuration not given here. Phe(4-CN) = N#Cc1ccc(C[C@H](N)C(=O)O)cc1; 3Pal = N[C@@H](Cc1cccnc1)C(=O)O; ξChg = NC(C(=O)O)C1CCCCC1; 3Abz = Nc1cccc(C(=O)O)c1; ξPip = O=C(O)C1CCCCN1; Bz = O=C(c1ccccc1)*
Hi! I'm sharing some pIC50 results obtained with Genome polyprotein (dengue virus type 2, UniProt P12823).
Sequence (P12823 1346-1475 limits assumed): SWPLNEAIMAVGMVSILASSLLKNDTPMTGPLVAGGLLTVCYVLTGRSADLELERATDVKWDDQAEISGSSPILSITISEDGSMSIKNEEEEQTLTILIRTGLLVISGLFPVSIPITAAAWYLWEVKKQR
Sequence (P12823 1476-2090 limits assumed): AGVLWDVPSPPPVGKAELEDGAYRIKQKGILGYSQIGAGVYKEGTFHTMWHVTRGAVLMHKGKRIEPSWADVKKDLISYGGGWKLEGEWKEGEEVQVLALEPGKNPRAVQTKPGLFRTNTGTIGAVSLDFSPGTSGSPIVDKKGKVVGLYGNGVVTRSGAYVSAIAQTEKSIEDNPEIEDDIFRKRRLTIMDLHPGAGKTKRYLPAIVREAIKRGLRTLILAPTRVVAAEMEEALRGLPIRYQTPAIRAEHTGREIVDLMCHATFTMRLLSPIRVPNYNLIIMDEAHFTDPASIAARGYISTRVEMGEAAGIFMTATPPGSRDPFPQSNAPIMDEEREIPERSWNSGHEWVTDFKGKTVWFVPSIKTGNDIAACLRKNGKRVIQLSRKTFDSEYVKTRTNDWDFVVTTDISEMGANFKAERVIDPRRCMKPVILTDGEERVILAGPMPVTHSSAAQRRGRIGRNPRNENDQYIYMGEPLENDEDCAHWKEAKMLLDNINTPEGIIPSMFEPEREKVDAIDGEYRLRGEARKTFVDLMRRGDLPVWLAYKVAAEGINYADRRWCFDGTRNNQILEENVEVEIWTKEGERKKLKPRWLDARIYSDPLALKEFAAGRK
Keep in mind that pIC50 stands for -log10 of concentration in molar terms.

Example cases with answers are listed next.
COMPOUND	TGT	pIC50
N=C(N)NCCC[C@H](NC(=O)c1ccccc1)C(=O)N[C@@H](CCCCN)C(=O)N[C@@H](CO)C(N)=O (Bz-Arg-Lys-Ser-NH2)	Genome polyprotein (dengue virus type 2, UniProt P12823)	4.52
N=C(N)NCCC[C@H](NC(=O)c1ccccc1)C(=O)N[C@@H](CCCCN)C(=O)Nc1cccc(C(N)=O)c1 (Bz-Arg-Lys-[3Abz]-NH2)	Genome polyprotein (dengue virus type 2, UniProt P12823)	4.02
N#C/C(=C\c1ccc(C(=O)N[C@@H](CCCNC(=N)N)C(=O)N[C@@H](CCCCN)C(=O)NC(C(N)=O)c2ccccc2)cc1)C(=O)NC1CC1 (stereo partly specified)	Genome polyprotein (dengue virus type 2, UniProt P12823)	5.89
N=C(N)NCCC[C@H](NC(=O)c1ccccc1)C(=O)N[C@@H](CCCCN)C(=O)N1CCCCC1C(N)=O (stereo partly drawn) (Bz-Arg-Lys-[ξPip]-NH2)	Genome polyprotein (dengue virus type 2, UniProt P12823)	3.80
N#Cc1ccc(C[C@H](NC(=O)[C@H](CCCCN)NC(=O)[C@H](CCCNC(=N)N)NC(=O)c2ccccc2)C(N)=O)cc1 (Bz-Arg-Lys-[Phe(4-CN)]-NH2)	Genome polyprotein (dengue virus type 2, UniProt P12823)	4.84
CCCC[C@H](NC(=O)[C@H](CCCCN)NC(=O)[C@H](CCCNC(=N)N)NC(=O)c1ccccc1)C(N)=O	Genome polyprotein (dengue virus type 2, UniProt P12823)	4.88

State the recorded pIC50 for this entry: N=C(N)NCCC[C@H](NC(=O)c1ccccc1)C(=O)N[C@@H](CCCCN)C(=O)NC(C(N)=O)C1CCCCC1 (stereo partly drawn) (Bz-Arg-Lys-[ξChg]-NH2)
4.76

# repeat for N=C(N)NCCC[C@H](NC(=O)c1ccccc1)C(=O)N[C@@H](CCCCN)C(=O)N[C@@H](Cc1cccnc1)C(N)=O (Bz-Arg-Lys-[3Pal]-NH2)
4.52

Source listed as ChEMBL document CHEMBL3352023.
